All values here come from patent US8691986B2.

Experimental System: human PDE2A1 (Homo sapiens (Human), UniProt O00408)
Sequence (O00408 other isoform, or with tags, fused parts or gaps): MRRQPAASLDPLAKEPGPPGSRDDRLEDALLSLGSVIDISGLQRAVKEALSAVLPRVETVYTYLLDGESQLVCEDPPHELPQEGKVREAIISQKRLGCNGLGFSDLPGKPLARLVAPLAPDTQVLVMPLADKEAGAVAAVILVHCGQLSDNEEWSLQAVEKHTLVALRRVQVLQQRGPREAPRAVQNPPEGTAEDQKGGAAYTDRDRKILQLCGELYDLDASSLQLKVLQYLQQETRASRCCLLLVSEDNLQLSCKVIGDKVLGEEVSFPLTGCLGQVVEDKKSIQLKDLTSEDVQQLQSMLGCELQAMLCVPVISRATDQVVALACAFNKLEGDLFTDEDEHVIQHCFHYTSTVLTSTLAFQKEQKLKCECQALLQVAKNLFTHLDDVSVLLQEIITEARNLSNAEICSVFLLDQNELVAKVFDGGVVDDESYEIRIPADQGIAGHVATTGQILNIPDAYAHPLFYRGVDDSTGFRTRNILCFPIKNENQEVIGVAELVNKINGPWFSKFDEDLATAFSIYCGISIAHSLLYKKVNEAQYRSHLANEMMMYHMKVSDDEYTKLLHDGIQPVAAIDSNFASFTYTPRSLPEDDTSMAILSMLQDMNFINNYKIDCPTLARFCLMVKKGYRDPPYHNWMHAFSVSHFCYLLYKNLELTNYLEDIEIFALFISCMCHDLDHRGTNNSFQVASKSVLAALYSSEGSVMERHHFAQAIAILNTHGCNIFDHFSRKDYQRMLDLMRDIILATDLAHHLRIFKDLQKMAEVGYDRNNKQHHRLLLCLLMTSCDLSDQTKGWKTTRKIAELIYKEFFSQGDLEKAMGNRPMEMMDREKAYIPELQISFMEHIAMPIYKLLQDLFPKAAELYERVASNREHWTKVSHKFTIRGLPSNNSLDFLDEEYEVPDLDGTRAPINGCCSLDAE
Listed molecules paired with reported IC50
Dear colleague, please send the value followed by its unit.

{"Molecule": "CNC(=O)c1cccc(-c2nccnc2C2CN(c3ccc4ccccc4n3)C2)c1 [Compound 17, reference compound]", "IC50": "2.16 µM"}
{"Molecule": "CNC(=O)c1ccc(-c2nccnc2C2CCN(c3ccc4ccccc4n3)CC2)cc1F", "IC50": "10 µM"}
{"Molecule": "NC(=O)c1ccc(-c2nccnc2C2CN(c3ccc4ccccc4n3)C2)cc1 [Compound 15, reference compound]", "IC50": "10 µM"}
{"Molecule": "CNC(=O)c1ccc(-c2nccnc2C2CN(c3ccc4ccc(F)cc4n3)C2)cc1F", "IC50": "10 µM"}
{"Molecule": "CNC(=O)c1ccc(-c2nccnc2C2CCN(c3ccc4ccc(F)cc4n3)CC2)cc1F", "IC50": "10 µM"}

Task: Name the recorded IC50 for `CNC(=O)c1ccc(-c2nccnc2C2CN(c3ncc4ccc(F)cc4n3)C2)cc1F` .
Result: 10 µM

Task: Same again, this time with `CNC(=O)c1ccc(-c2nccnc2C2CCN(c3ccc4cccc(F)c4n3)CC2)cc1F`
Result: 10 µM

Task: Same again, this time with NC(=O)c1ccc(-c2nccnc2C2CN(c3ccc4ccccc4n3)C2)cc1F [Compound 16, reference compound]
Result: 3.3 µM

Task: Same again, this time with `CNC(=O)c1ccc(-c2nccnc2C2CN(c3ccc4cc(F)ccc4n3)C2)cc1F`
Result: 10 µM

###

Listed compounds paired with reported efflux ratio at 2 h, 5 μM
Experimental System: human MDR1 (P-gp) (Homo sapiens (Human))
Sequence (P08183 whole entry): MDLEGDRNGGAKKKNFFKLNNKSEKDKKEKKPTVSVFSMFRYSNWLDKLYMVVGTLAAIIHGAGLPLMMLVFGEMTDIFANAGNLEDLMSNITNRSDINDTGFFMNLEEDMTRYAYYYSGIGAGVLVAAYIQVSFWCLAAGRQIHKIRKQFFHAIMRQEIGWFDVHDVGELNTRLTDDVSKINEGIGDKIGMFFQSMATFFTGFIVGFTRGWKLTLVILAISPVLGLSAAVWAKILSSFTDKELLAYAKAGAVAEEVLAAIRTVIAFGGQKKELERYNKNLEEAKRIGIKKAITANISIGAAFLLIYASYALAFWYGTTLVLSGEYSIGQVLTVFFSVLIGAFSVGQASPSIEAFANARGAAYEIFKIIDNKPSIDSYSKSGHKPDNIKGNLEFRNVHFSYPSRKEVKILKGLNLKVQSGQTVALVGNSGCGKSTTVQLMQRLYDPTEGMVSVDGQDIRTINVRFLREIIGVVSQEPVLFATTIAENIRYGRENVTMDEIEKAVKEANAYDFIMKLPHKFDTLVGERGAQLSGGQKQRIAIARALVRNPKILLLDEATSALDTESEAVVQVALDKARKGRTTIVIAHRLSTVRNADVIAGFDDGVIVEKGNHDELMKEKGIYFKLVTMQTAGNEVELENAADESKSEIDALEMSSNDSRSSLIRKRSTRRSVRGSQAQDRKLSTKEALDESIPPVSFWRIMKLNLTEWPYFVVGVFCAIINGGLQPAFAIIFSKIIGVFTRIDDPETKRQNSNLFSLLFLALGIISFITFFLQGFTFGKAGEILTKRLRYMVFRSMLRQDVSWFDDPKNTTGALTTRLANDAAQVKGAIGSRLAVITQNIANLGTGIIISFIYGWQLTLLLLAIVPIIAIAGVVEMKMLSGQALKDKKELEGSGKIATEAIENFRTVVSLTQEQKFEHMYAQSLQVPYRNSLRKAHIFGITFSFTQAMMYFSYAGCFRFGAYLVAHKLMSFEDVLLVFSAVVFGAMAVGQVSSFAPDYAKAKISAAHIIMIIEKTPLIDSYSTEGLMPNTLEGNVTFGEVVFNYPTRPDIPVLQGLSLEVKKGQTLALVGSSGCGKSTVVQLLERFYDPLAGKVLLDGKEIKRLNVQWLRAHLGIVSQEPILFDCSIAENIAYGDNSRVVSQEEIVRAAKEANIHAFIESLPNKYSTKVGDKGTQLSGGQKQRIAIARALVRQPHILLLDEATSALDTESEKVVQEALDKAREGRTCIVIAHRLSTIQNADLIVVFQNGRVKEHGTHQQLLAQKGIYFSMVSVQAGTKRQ
Experimental Details: Transcellular transport in human MDR1-transfected LLC-PK1 cells
Assay type: in vitro ADME
Applied Conditions: pH 7.4, MDR1-LLC-PK1, 5 μM test compound
Lab note: jot down the number only; don't add units.

Known results for compounds:
{"Compound": "CNC(=O)c1ccc(-c2nccnc2C2CN(c3ncc4ccccc4n3)C2)cc1F [Example 6]", "efflux ratio at 2 h, 5 μM": 1.8}
{"Compound": "CNC(=O)c1ccc(-c2nccnc2C2CN(c3ccc4ncc(Cl)cc4n3)C2)cc1F [Example 14]", "efflux ratio at 2 h, 5 μM": 1.25}
{"Compound": "CNC(=O)c1ccc(-c2nccnc2C2CN(c3ccc4ccccc4n3)C2)cc1F [Example 7]", "efflux ratio at 2 h, 5 μM": 2.95}
{"Compound": "CNC(=O)c1ccc(-c2nccnc2C2CCN(c3ccc4ccc(F)cc4n3)CC2)cc1F [Example 2]", "efflux ratio at 2 h, 5 μM": 2.4}
{"Compound": "CNC(=O)c1ccc(-c2nccnc2C2CN(c3ncc4cc(F)ccc4n3)C2)cc1F [Example 11]", "efflux ratio at 2 h, 5 μM": 1.75}

Task: Name the recorded efflux ratio at 2 h, 5 μM for CNC(=O)c1ccc(-c2nccnc2C2CCN(c3ccc4ccc(Cl)cc4n3)CC2)cc1F [Example 1] .
Result: 2.9

Task: Same again, this time with CNC(=O)c1ccc(-c2nccnc2C2CN(c3ncc4ccc(Cl)cc4n3)C2)cc1F [Example 10]
Result: 1.8

Task: Same again, this time with CNC(=O)c1ccc(-c2nccnc2C2CCN(c3ccc4ccccc4n3)CC2)cc1F [Example 3]
Result: 2

###

Experimental System: PDE10 (Rattus norvegicus (Rat), UniProt Q9QYJ6)
Sequence (Q9QYJ6 whole entry): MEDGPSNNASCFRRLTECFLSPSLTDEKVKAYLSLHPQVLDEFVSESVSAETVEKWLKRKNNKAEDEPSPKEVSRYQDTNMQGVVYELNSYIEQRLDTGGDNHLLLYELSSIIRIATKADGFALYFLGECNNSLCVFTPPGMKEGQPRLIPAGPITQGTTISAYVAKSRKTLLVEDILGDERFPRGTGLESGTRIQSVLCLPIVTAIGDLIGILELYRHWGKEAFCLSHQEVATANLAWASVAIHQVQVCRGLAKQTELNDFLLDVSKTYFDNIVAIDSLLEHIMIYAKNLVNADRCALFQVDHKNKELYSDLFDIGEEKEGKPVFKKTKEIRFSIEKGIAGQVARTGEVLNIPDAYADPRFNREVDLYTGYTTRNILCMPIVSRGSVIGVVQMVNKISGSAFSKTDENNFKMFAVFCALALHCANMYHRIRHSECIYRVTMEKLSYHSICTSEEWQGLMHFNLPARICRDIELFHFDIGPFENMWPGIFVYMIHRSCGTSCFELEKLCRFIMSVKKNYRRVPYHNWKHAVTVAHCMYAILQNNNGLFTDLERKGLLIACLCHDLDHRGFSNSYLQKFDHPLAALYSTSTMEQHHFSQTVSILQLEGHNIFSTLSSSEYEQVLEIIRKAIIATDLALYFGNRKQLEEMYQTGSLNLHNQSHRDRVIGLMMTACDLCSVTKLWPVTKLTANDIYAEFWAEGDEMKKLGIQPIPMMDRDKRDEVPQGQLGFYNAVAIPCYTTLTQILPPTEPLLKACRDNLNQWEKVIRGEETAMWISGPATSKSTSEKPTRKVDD
Experimental Details: PDE10 ex vivo receptor occupancy (RO) screening in rat striatum
Applied Conditions: oral, 3 mpk, 4 h (footnote C)
The threshold is inclusive: receptor occupancy at 3 mg/kg of exactly 80% counts as 1.0; values below receive 0.0.

Below are worked cases with known answers.
{"Chem Smiles": "CNC(=O)c1ccc(-c2nccnc2C2CN(c3ccc4ccc(F)cc4n3)C2)cc1F", "Class Name": 1.0}
{"Chem Smiles": "CNC(=O)c1ccc(-c2nccnc2C2CCN(c3ccc4cccc(F)c4n3)CC2)cc1F", "Class Name": 0.0}
{"Chem Smiles": "CNC(=O)c1ccc(-c2nccnc2C2CN(c3ncc4cc(F)c(Cl)cc4n3)C2)cc1F", "Class Name": 1.0}
{"Chem Smiles": "CNC(=O)c1ccc(-c2nccnc2C2CN(c3ncc4ccccc4n3)C2)cc1F", "Class Name": 0.0}
{"Chem Smiles": "CNC(=O)c1ccc(-c2nccnc2C2CN(c3ccc4cc(F)ccc4n3)C2)cc1F", "Class Name": 0.0}
{"Chem Smiles": "CNC(=O)c1ccc(-c2nccnc2C2CCN(c3ccc4ccccc4n3)CC2)cc1F", "Class Name": 1.0}
{"Chem Smiles": "CNC(=O)c1ccc(-c2nccnc2C2CN(c3ncc4ccc(F)cc4n3)C2)cc1F", "Class Name": 0.0}
{"Chem Smiles": "CNC(=O)c1ccc(-c2nccnc2C2CN(c3ccc4ccccc4n3)C2)cc1F", "Class Name": 1.0}
{"Chem Smiles": "CNC(=O)c1ccc(-c2nccnc2C2CN(c3ncc4cc(F)ccc4n3)C2)cc1F", "Class Name": 0.0}
{"Chem Smiles": "CNC(=O)c1ccc(-c2nccnc2C2CCN(c3ccc4ccc(Cl)cc4n3)CC2)cc1F", "Class Name": 0.0}

Task: Is reported receptor occupancy at 3 mg/kg greater than or equal to 80% here: `CNC(=O)c1ccc(-c2nccnc2C2CN(c3ncc4ccc(Cl)cc4n3)C2)cc1F`
Result: 1.0

Task: Same again, this time with `CNC(=O)c1ccc(-c2nccnc2C2CCN(c3ccc4cc(F)ccc4n3)CC2)cc1F`
Result: 1.0
